Values from ChEMBL document CHEMBL1201862

- Tested on: HL-60
- test_summary: NCI tumour cell line growth inhibition, 48 h
The source made the active and inactive calls. No stated cut-off is given here; in the data, active = GI50 up to about 1.1 µM and inactive = higher.
Respond with a class label; see True (active), False (inactive)

Cc1cc(C)nc(SCCc2cccc[n+]2C)n1    False
C1CCCN(NC2=NCCO2)CC1    False
CCOC(=O)/C(=N/Nc1ccc(Cl)cc1)N1C(=S)N(C)N=C(C)C=C1S    False
CCNC(=O)NNc1ncnc2c1c(-c1ccc(Cl)cc1)cn2-c1ccc(C)cc1    False
c1ccc2sc(C3(N4CCCC4)CCCCCC3)cc2c1    False
CCOC(=O)C(NC(=O)Nc1ccc(Cl)cc1)(OC)C(F)(F)F (stereo not drawn)    False

Req: Assay outcome for `CC(C)(CN1C(=O)C(Cl)=C(Cl)C1=O)CN1C(=O)C(Cl)=C(Cl)C1=O` : what was it?
Resp: True
